Data provenance: ChEMBL document CHEMBL1201862

- Tested on: K562
- protocol_notes: NCI tumour cell line growth inhibition, 48 h
Activity calls are given as the source filed them. Rule as the data show it: active = GI50 up to about 1.1 µM and inactive = higher.
Your answer must be one of the following: active, inactive

Enquiry: What is the recorded call for this molecule in the test? `CN(C)/N=N/c1nc2c(c(=O)n(C)c(=O)n2C)n1C`
Return: inactive

Enquiry: What is the recorded call for this molecule in the test? `NS(=O)(=O)c1cc(Cl)c(NC(=S)NC(=O)Nc2ccc(Cl)c(Cl)c2)c(Cl)c1`
Return: inactive

Enquiry: What is the recorded call for this molecule in the test? O=C(O)Cc1cccc2c1OC(c1ccccc1)C(C(=O)c1ccccc1)C2=O (configuration not stated)
Return: inactive

Enquiry: What is the recorded call for this molecule in the test? `COC(=O)/C=C1/OC(c2ccc(Br)cc2)=C(Br)C1=O`
Return: inactive

Enquiry: What is the recorded call for this molecule in the test? `CCN(CC)C(=S)N/N=C/c1ccccn1`
Return: active

Enquiry: What is the recorded call for this molecule in the test? CC(C)CC(NC(=O)OCc1ccccc1)C(=O)NCCCCC(N)C(=O)NC(CCCCNC(=O)C(CC(C)C)NC(=O)OCc1ccccc1)C(=O)NC(CCCCNC(=O)C(CC(C)C)NC(=O)OCc1ccccc1)C(=O)NC(CCCCNC(=O)C(CC(C)C)NC(=O)OCc1ccccc1)C(=O)NC(CCCCNC(=O)C(CC(C)C)NC(=O)OCc1ccccc1)C(=O)NC(CCCCNC(=O)C(CC(C)C)NC(=O)OCc1ccccc1)C(=O)O (configuration not stated)
Return: inactive

Enquiry: What is the recorded call for this molecule in the test? `O=c1[nH]nc(Cc2ccccc2)n1C1CCCC1`
Return: inactive

Enquiry: What is the recorded call for this molecule in the test? `CCOP(=Nc1ccc(N(C)C)cc1)(OCC)OCC`
Return: inactive

Enquiry: What is the recorded call for this molecule in the test? CN(C)/C(F)=P\C(F)(F)F (configuration not stated)
Return: inactive

Enquiry: What is the recorded call for this molecule in the test? Cc1c(O)ccc2c(O)c(NC(=O)c3ccc4c(c3)CCC(C)(C)O4)c(=O)oc12 [CYCLONOVOBIOCIC ACID]
Return: inactive

Enquiry: What is the recorded call for this molecule in the test? `COc1ccc(C(=O)c2[nH]c(Nc3cc(C)ccn3)c(C(=S)Nc3ccccc3)c2N)cc1`
Return: inactive

Enquiry: What is the recorded call for this molecule in the test? `Cc1cccc(Nc2nn3c(=O)c4c5c(sc4nc3s2)CCCC5)c1`
Return: inactive
